System: primary human chondrocyte pellet cultures
Assay: Chondrogenesis activity assay in primary human chondrocyte pellet cultures (proteoglycan (aggrecan) induction, Blyscan assay)
Format: cell-based
Conditions: 336 h; proteoglycan (aggrecan) induction, primary human chondrocyte pellets, 2 weeks culture
Mark met only for EC50 values smaller than 4 µM; exact matches and larger values are not met.

Cc1nccc2c1[nH]c1c(-c3ccnc(N4CCNCC4)c3)cc(Cl)cc12 : met

Turning to the following compound.
Input `OCCn1cc(-c2cc(Cl)cc3c4ccncc4n(CC(F)(F)F)c23)cn1` ; condition: EC50 strictly below 4 µM. Does it hold?
met

----------
Test system: primary human chondrocyte pellet cultures
Assay: Chondrogenesis activity assay in primary human chondrocyte pellet cultures (proteoglycan (aggrecan) induction, Blyscan assay)
Assay type: cell-based
Settings: 336 h; proteoglycan (aggrecan) induction, primary human chondrocyte pellets, 2 weeks culture
Each entry below lists one item and its recorded log10 EC50 value.
Log scale reminder: EC50 in µM, then log10 taken.

Cc1nccc2c1[nH]c1c(-c3ccc(OCCn4cccn4)cc3)cc(Cl)cc12 : 0.04

Fill in log10 EC50 for record `COc1ccc(-c2cc(Cl)cc3c2[nH]c2c(C)nccc23)cc1`
0.04

Fill in log10 EC50 for record `Cc1nccc2c1[nH]c1c(-c3ccc(C(=O)NCCN(C)C)cc3)cc(Cl)cc12`
0.18

Fill in log10 EC50 for record `Cc1nccc2c1[nH]c1c(-c3cccc(OCc4nccn4C)c3)cc(Cl)cc12`
0.69

Fill in log10 EC50 for record `Cc1nccc2c1[nH]c1c(-c3cccc(NC(=O)Nc4ccc(F)cc4F)c3)cc(Cl)cc12`
1.32

Fill in log10 EC50 for record `COC(=O)c1cc2c([nH]c3c(-c4ccc(Cl)nc4Cl)cc(Cl)cc32)c(C)n1`
1.43

Fill in log10 EC50 for record `COCc1cc(-c2cc(Cl)cc3c2[nH]c2c(C)nccc23)ccc1OC`
0.64

Fill in log10 EC50 for record `Cc1nccc2c1[nH]c1c(-c3ccnc(F)c3Br)cc(Cl)cc12`
1.00

Fill in log10 EC50 for record `COc1ccc(-c2cc(Cl)c(C)c3c2[nH]c2c(C)nccc23)cc1`
0.54

Fill in log10 EC50 for record `FC(F)(F)Cn1c2cnccc2c2cc(Cl)cc(-c3cnn(-c4c(Cl)cccc4Cl)c3)c21`
1.11

Fill in log10 EC50 for record `Cc1nccc2c1[nH]c1c(-c3ccc(CN)cc3)cc(Cl)cc12`
0.18

Fill in log10 EC50 for record `COc1ccc(-c2cc(Cl)cc3c2[nH]c2c(C)nccc23)nc1N`
1.60

Fill in log10 EC50 for record `COc1cc(-c2cc(Cl)cc3c2[nH]c2c(C)nccc23)ccc1OCc1cccc(F)n1`
1.43

Fill in log10 EC50 for record `CCn1c2c(-c3ccnn3C)cc(Cl)cc2c2ccnc(C)c21`
0.84

Fill in log10 EC50 for record `CCn1c2c(-c3cnn(Cc4ccccn4)c3)cc(Cl)cc2c2ccnc(C)c21`
0.69

Fill in log10 EC50 for record `Cc1nccc2c1[nH]c1c(-c3cccc(N4CCOCC4)c3)cc(Cl)cc12`
0.58

Fill in log10 EC50 for record `Cc1nccc2c1[nH]c1c(-c3cnccc3Cl)cc(Cl)cc12`
0.71

Fill in log10 EC50 for record `Cc1nccc2c1[nH]c1c(-c3ccc4c(c3)CCCO4)cc(Cl)cc12`
0.28
